system: 677734-321-R-J1-PDC complex spheroid viability; assay: Anticancer human tumor 677734-321-R-J1-PDC patient-derived soft tissue sarcoma cell line growth inhibition [POLQ]; conditions: second compound 0.0316 µM; first compound 3.16 µM; hits give low values
resultType: viability, T/C

CNCc1ccc(-c2[nH]c3cc(F)cc4c3c2CCNC4=O)cc1 + Cc1cccc(N(C)C(=O)C2C(O)CCN2c2nc(C)cc(C(F)(F)F)c2C#N)c1 ... 107%

Please go through the list and note viability, T/C for each compound.
1. CC(C)n1c(=O)n(C)c2cnc3cc(F)c(-c4ccc(OCCCN5CCCCC5)nc4)cc3c21 + COC1C(OC(N)=O)C(O)C(Oc2ccc3c(O)c(NC(=O)c4ccc(O)c(CC=C(C)C)c4)c(=O)oc3c2C)OC1(C)C
2. CC1COCCN1c1cc(C2(O)CC3CCC(C2)O3)c2cnn(-c3ccn[nH]3)c2n1 (centres undefined) + Cc1cccc(N(C)C(=O)C2C(O)CCN2c2nc(C)cc(C(F)(F)F)c2C#N)c1
3. O=c1[nH]cc(F)c(=O)[nH]1 + Cc1cccc(N(C)C(=O)C2C(O)CCN2c2nc(C)cc(C(F)(F)F)c2C#N)c1

111%
17.3%
54.6%

----------
system: 677734-321-R-J1-PDC complex spheroid viability; experiment: Anticancer human tumor 677734-321-R-J1-PDC cell line growth inhibition [POLQ]; details: second compound 1 µM; first compound 1 µM; hits give low values;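 note: spheroids exposed to compounds for one week; 100% = vehicle DMSO treated spheroids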
resultType: viability, T/C (%)
Give bare numbers, in %.

Nc1ccn(C2OC(CO)C(O)C2(F)F)c(=O)n1 (stereo not drawn) + Cc1cccc(N(C)C(=O)C2C(O)CCN2c2nc(C)cc(C(F)(F)F)c2C#N)c1 ... 15.4
CNCc1ccc(-c2[nH]c3cc(F)cc4c3c2CCNC4=O)cc1 + Cc1cccc(N(C)C(=O)C2C(O)CCN2c2nc(C)cc(C(F)(F)F)c2C#N)c1 ... 114
O=C(Nc1ccc(O)c(NS(=O)(=O)c2ccc(F)cc2)c1)c1ccc(-c2ccccc2)cc1 + Cc1cccc(N(C)C(=O)C2C(O)CCN2c2nc(C)cc(C(F)(F)F)c2C#N)c1 ... 101
COc1cccc(OCCCN)c1-c1cc(Nc2cnc(C#N)cn2)n[nH]1 + Nc1ccc(C#CCN(C(=O)Cc2ncc(C(F)(F)F)cc2C(F)(F)F)c2ccc(F)cc2)nn1 ... 5.02
O=C(Nc1ccc(O)c(NS(=O)(=O)c2ccc(F)cc2)c1)c1ccc(-c2ccccc2)cc1 + COC1C(OC(N)=O)C(O)C(Oc2ccc3c(O)c(NC(=O)c4ccc(O)c(CC=C(C)C)c4)c(=O)oc3c2C)OC1(C)C ... 101

Please go through the list and note viability, T/C for each molecule.
1. CC1COCCN1c1cc(C2(S(C)(=N)=O)CC2)nc(-c2ccnc3[nH]ccc23)n1 (stereo not drawn) + Cc1cccc(N(C)C(=O)C2C(O)CCN2c2nc(C)cc(C(F)(F)F)c2C#N)c1
2. COc1ccc([C@@H](O)c2cc(-c3ncnc4cc(N5CCOCC5)ccc34)c(F)cc2Cl)nn1 + COC1C(OC(N)=O)C(O)C(Oc2ccc3c(O)c(NC(=O)c4ccc(O)c(CC=C(C)C)c4)c(=O)oc3c2C)OC1(C)C
3. O=C(c1cc(Cc2n[nH]c(=O)c3ccccc23)ccc1F)N1CCN(C(=O)C2CC2)CC1 + Nc1ccc(C#CCN(C(=O)Cc2ncc(C(F)(F)F)cc2C(F)(F)F)c2ccc(F)cc2)nn1

98.3
100
93
